# System: NCI-H460
# Protocol Notes: NCI tumour cell line growth inhibition, 48 h
Active and inactive are the calls of the source. No stated cut-off is given here; in the data, active = GI50 up to about 1.1 µM and inactive = higher. Starred links: 1 amine or outer side, 2 acyl side, 3 side chain; linkers in the order of their positions; H or OH if unused. Residues, ends and D or L forms follow the SMILES beside them. *: point of attachment. γGlu = O=C(O)[CH](CCC(=O)[*:2])N[*:1]; NHOH = ON*
Can you answer with just one of these options? class 1 (active), class 0 (inactive)

COC(=O)CCCc1c(-c2[nH]c3ccccc3c2CCCC(=O)OC)[nH]c2ccccc12    class 0
CCN(CC)c1nc(N(C)C)c2ccccc2n1    class 0
N#CC1=C(N)Oc2c(ccc3cccnc23)C1c1ccccc1 (centres undefined)    class 1
CCOC(=O)CNC(=O)C(CCC(=O)NO)NC(=O)CCC(N)C(=O)O (centres undefined) (γGlu-Glu(NHOH)-Gly-OEt; configuration not given here)    class 0
N/N=C(\C(=O)Nc1ccc(Cl)cc1Cl)C(c1cnc2ccccc2n1)[N+](=O)[O-] (centres undefined)    class 0

### Prompt Given O=[N+]([O-])c1ccc2sc(/C=N/c3ccc(O)cc3)cc2c1 , state the outcome it received in this test.
### Response class 0

### Prompt Given NC1=Nc2ccccc2Sc2ccccc21 , state the outcome it received in this test.
### Response class 0

### Prompt Given CCCC(=O)NC1=C(NCC)C(=O)c2ccccc2C1=O , state the outcome it received in this test.
### Response class 0

### Prompt Given CN1N=CSC12C(=O)N(c1ccc(Cl)cc1)C(=O)N2c1ccc(Cl)cc1 (centres undefined) , state the outcome it received in this test.
### Response class 0

====

# GI50 values compiled below
# Tested on: MCF7
# Protocol Notes: NCI tumour cell line growth inhibition, 48 h
Activity calls are given as the source filed them. No stated cut-off is given here; in the data, active = GI50 up to about 1.1 µM and inactive = higher.

// below: answered molecules
COc1ccc(-c2cc(-c3ccco3)c(C#N)c(=S)n2C2OC(COC(C)=O)C(OC(C)=O)C(OC(C)=O)C2OC(C)=O)cc1 (stereo not drawn)    23.6 µM (inactive)
O=C(N/N=C(COc1ccc([N+](=O)[O-])cc1)\N=C\c1ccncc1)c1ccncc1    > 100 µM (inactive)

### Prompt State the recorded GI50 for this entry: O=C(Nc1cc(C(=O)Nc2cccc(S(=O)(=O)O)c2)cc(C(=O)Nc2cccc(S(=O)(=O)O)c2)c1)c1cccc(C(=O)Nc2cc(C(=O)Nc3cccc(S(=O)(=O)O)c3)cc(C(=O)Nc3cccc(S(=O)(=O)O)c3)c2)c1
### Response > 100 µM (inactive)

====

# System: NCI-H460
# Protocol Notes: NCI tumour cell line growth inhibition, 48 h
Active and inactive are the calls of the source. No stated cut-off is given here; in the data, active = GI50 up to about 1.1 µM and inactive = higher.
# GI50 values compiled below

// below: answered compounds
c1ccc2c(c1)nnn1c3cnccc3nc21    16 µM (inactive)
CC(C)=CCCC(C)CCOS(=O)C(F)(F)F (stereo not drawn)    16.1 µM (inactive)

Below: the item to evaluate.
### Prompt State the recorded GI50 for this entry: COC(=O)[C@H](Cc1ccccc1)NC(=O)c1ccc(CNC(=O)/C=C/c2cccc(Oc3ccccc3)c2)cc1
### Response 24.9 µM (inactive)

====

# Tested on: NCI-H23
# Protocol Notes: NCI tumour cell line growth inhibition, 48 h
Calls of active or inactive are those of the source. No stated cut-off is given here; in the data, active = GI50 up to about 1.1 µM and inactive = higher.
# GI50 values compiled below

COc1ccc(/C=C2/C(=O)C(c3ccccc3)N(c3ccccc3)C2=O)cc1OC (centres undefined)    > 10 µM (inactive)
O=C(NNCC(F)(F)F)c1ccncc1    > 100 µM (inactive)
N#CC1=C(N)Oc2c(ccc3cccnc23)C1c1ccccc1 (centres undefined)    1.31 µM (inactive)

Below: the item to evaluate.
### Prompt State the recorded GI50 for this entry: CSC(=NC1=NC(C(F)(F)F)(C(F)(F)F)N=C(c2ccccc2)O1)SC
### Response 7.31 µM (inactive)
